Values compiled from ChEMBL document CHEMBL1201862.

- System: SK-OV-3
- test.details: NCI tumour cell line growth inhibition, 48 h
Activity calls are given as the source filed them. Rule as the data show it: active = GI50 up to about 1.1 µM and inactive = higher.
Outcomes you can answer with include only these: active, inactive

molecule="CC(=O)Nc1ccc(/C=C/C(=O)N2CC(CCl)c3c2cc(N)c2ccccc32)cc1 (stereo not given)" assay_target=SK-OV-3 discrete_label=active
molecule=COc1ccc(C=O)cc1Oc1ccc(C[C@H]2c3c(cc(OC)c4c3Oc3cc5c(cc3O4)CCN(C)C5=O)CCN2C)cc1 assay_target=SK-OV-3 discrete_label=inactive
molecule=c1ccc(CN2COc3c(ccc4c5c(ccc34)CN(Cc3ccccc3)CO5)C2)cc1 assay_target=SK-OV-3 discrete_label=inactive
molecule=C/C(=N\NC(=S)NCc1ccccc1)c1nc2cccnc2[nH]1 assay_target=SK-OV-3 discrete_label=inactive
molecule="CC(=O)OC(C(=O)NNC(=O)OC(C)(C)C)c1ccccc1 (stereo not given)" assay_target=SK-OV-3 discrete_label=inactive
molecule="CC(C)[Si](OCC1CC(C[C@H]2CC(C[C@H]3C[C@@H](CO[Si](C(C)C)(C(C)C)C(C)C)OC(C)(C)O3)OC(C)(C)O2)OC(C)(C)O1)(C(C)C)C(C)C (stereo not given in full)" assay_target=SK-OV-3 discrete_label=inactive
molecule=COc1ccc2oc(-c3cc4cc(OC)ccc4o3)cc2c1 assay_target=SK-OV-3 discrete_label=inactive
molecule="CCN(CC)CC(C(=O)Nc1c(C)cccc1C)/C(C)=N\\NC(=S)NN (stereo not given)" assay_target=SK-OV-3 discrete_label=inactive

What outcome does the record of this test show for COc1cccc(/C=N/NC(=O)CSCC(=O)N/N=C/c2cccc(OC)c2OC)c1OC ? inactive

What outcome does the record of this test show for CCCC(=O)OC[n+]1ccc2c(C)c3[nH]c4ccc(OC)cc4c3c(C)c2c1 ? inactive

What outcome does the record of this test show for Cc1nnc2sc(N/N=C/c3ccccc3)nn12 ? inactive

What outcome does the record of this test show for CC(=O)OC1COC(n2nc(/C=C/c3ccc(Cl)cc3)c(=O)n(/N=C/c3ccccc3)c2=S)C(OC(C)=O)C1OC(C)=O (stereo not given) ? inactive

What outcome does the record of this test show for CC1(C)CNC(=O)C2(/C=N/C(C)(C)CNC(=O)C3(/C=N/1)CCCO3)CCCO2 (stereo not given) ? inactive

What outcome does the record of this test show for CCOP(=O)(OCC)/C(F)=C/c1ccc(F)cc1 ? inactive

What outcome does the record of this test show for NC(CCC(=O)NC(CSC(=O)N(O)c1ccc(Br)cc1)C(=O)NCC(=O)O)C(=O)O (stereo not given) ? inactive

What outcome does the record of this test show for Cc1cc(C(=O)N2CCN(Cc3ccccc3)CC2)c(C)o1 ? inactive

* * *

- System: HOP-18
- test.details: NCI tumour cell line growth inhibition, 48 h
Activity calls are given as the source filed them. Cut-off read from the data, not from the text of the source: active = GI50 up to about 1.1 µM and inactive = higher.
Outcomes you can answer with include only these: active, inactive

For orientation, consider the following solved cases.
compound="COc1cc(C(C)c2cc3c(cc2OCCO)OCO3)cc(OC)c1OC (stereo not given)" discrete_label=inactive
compound="CCC1CN2CCC1CC2 (stereo not given)" discrete_label=inactive
compound=Cc1ccc(NC(=O)CCc2nnc3s/c(=C\c4cccc([N+](=O)[O-])c4)c(=O)n23)cc1 discrete_label=inactive

What outcome does the record of this test show for COc1cc([C@@H]2c3cc4c(cc3[C@@H](NC(=O)c3cccc(F)c3)C3COC(=O)[C@@H]32)OCO4)cc(OC)c1O (stereo not given in full) ? inactive

What outcome does the record of this test show for O=C(c1cc(O)ccc1O)c1ccccc1C(Cl)(Cl)Cl ? inactive

What outcome does the record of this test show for O=C(O)/C=C/c1c[nH]cn1 ? inactive

What outcome does the record of this test show for COc1cc2c(cc1OC)-c1c(cc(OC)c(OC)c1OC)C2=O ? inactive

What outcome does the record of this test show for Cc1ccc(NC(=O)c2cccc([N+](=O)[O-])c2O)c([N+](=O)[O-])c1 ? inactive

What outcome does the record of this test show for CC(C)(C)c1ccc(Oc2ccc(C#N)c(C#N)c2)c(C(C)(C)C)c1 ? inactive

What outcome does the record of this test show for CC(=O)/C(C)=N/NC(=O)c1ccccc1O ? inactive

What outcome does the record of this test show for CCCNCc1nc2ccc(Br)cc2c(=O)n1CCC ? inactive
